- experimental system: human B2 receptor (Homo sapiens)
pKi: −log10 of the molar value. Counter-ions that a name gives are not always drawn.
t means recorded pKi is 8 or above; f means it is below 8.

Could you tell me if the measured pKi of Cc1cc(-n2ccnc2)c2cccc(OCc3c(Cl)ccc(S(=O)(=O)N4CCC[C@H]4C(=O)NCCN4CCCC4)c3Cl)c2n1 [Example 75, tartrate] reaches 8 or more? t

Could you tell me if the measured pKi of Cc1cc(-n2ccnc2)c2cccc(OCc3c(Cl)ccc(S(=O)(=O)N4CCC[C@H]4C(=O)NCC4CCN(CCC(=O)O)CC4)c3Cl)c2n1 [Example 115, tartrate] reaches 8 or more? f

Could you tell me if the measured pKi of Cc1cc(-n2ccnc2)c2cccc(OCc3c(Cl)ccc(S(=O)(=O)N4CCC[C@H]4C(=O)NCC4CCN(CCCCO)CC4)c3Cl)c2n1 [Example 32, tartrate] reaches 8 or more? t

Could you tell me if the measured pKi of `Cc1cc(-n2ccnc2)c2cccc(OCc3c(Cl)ccc(S(=O)(=O)N4CCC[C@H]4C(=O)NCCCNC(=O)c4ccc(C(=N)N)cc4)c3Cl)c2n1` reaches 8 or more? t

Could you tell me if the measured pKi of `Cc1cc(-n2cncn2)c2cccc(OCc3c(Cl)ccc(S(=O)(=O)N4CCC[C@H]4C(=O)NCC4CCN(CCO)CC4)c3Cl)c2n1` reaches 8 or more? t

###

- experimental system: bradykinin B2 receptor (Homo sapiens)
- Construct: from tissue; host or cells: isolated human umbilical vein
- Sequence (P30411 1-391): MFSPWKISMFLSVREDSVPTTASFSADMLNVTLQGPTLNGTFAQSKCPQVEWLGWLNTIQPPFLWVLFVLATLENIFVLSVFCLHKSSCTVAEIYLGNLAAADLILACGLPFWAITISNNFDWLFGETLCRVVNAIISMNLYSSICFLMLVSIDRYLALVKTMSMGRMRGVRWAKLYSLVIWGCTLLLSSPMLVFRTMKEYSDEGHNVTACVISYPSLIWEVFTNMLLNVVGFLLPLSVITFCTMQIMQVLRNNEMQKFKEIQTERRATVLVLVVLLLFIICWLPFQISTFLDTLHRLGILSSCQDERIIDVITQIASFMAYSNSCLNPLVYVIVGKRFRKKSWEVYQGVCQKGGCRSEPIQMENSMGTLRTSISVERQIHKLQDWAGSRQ
- method summary: inhibition of the contraction of the isolated human umbilical vein in the presence of bradykinin
- Type: cell-based
- test context: isolated human umbilical vein, contraction in the presence of bradykinin; read-out: pA2 (converted)
measure name: Kb
Report the figure along with its unit, number first.

| molecule | Kb |
| --- | --- |
| Cc1cc(-n2ccnc2)c2cccc(OCc3c(Cl)ccc(S(=O)(=O)N4CCC[C@H]4C(=O)NCC4CCN(CCO)CC4)c3Cl)c2n1 | 0.501 nM |
| Cc1cc(-n2ccnc2)c2cccc(OCc3c(Cl)ccc(S(=O)(=O)N4CCC[C@H]4C(=O)NCCCNC(=O)c4ccc(C(=N)N)cc4)c3Cl)c2n1 | 0.1 nM |
| Cc1cc(-n2cncn2)c2cccc(OCc3c(Cl)ccc(S(=O)(=O)N4CCC[C@H]4C(=O)NCC4CCN(CCO)CC4)c3Cl)c2n1 | 6.31 nM |
| CC(=O)N[C@H]1CCN(S(=O)(=O)c2ccc(Cl)c(COc3cccc4c(-n5ccnc5)cc(C)nc34)c2Cl)C1 | 7.94 nM |
| Cc1cc(-n2ccnc2)c2cccc(OCc3c(Cl)ccc(S(=O)(=O)N4CCC[C@H]4C(=O)NCC4CCN(Cc5ccccn5)CC4)c3Cl)c2n1 [Example 109, methanesulphonate] | 5.01 nM |
| Cc1cc(-n2ccnc2)c2cccc(OCc3c(Cl)ccc(S(=O)(=O)N4CCC[C@H]4C(=O)NCc4ccccn4)c3Cl)c2n1 [Example 89, methanesulphonate] | 10 nM |
| Cc1cc(-n2ccnc2)c2cccc(OCc3c(Cl)ccc(S(=O)(=O)N4CCC[C@H]4C(=O)N(C)CCN(C)CCCCO)c3Cl)c2n1 [Example 103, methanesulphonate] | 12.6 nM |
| Cc1cc(-n2cncn2)c2cccc(OCc3c(Cl)ccc(S(=O)(=O)N4CCC[C@H]4C(=O)NCCCN4CCCC4)c3Cl)c2n1 [Example 87, methanesulphonate] | 6.31 nM |

# Kb lookup, item `Cc1cc(-n2ccnc2)c2cccc(OCc3c(Cl)ccc(S(=O)(=O)N4C[C@H](O)C[C@H]4C(=O)NCC4CCNCC4)c3Cl)c2n1` 5.01 nM

# Kb lookup, item Cc1cc(-n2ccnc2)c2cccc(OCc3c(Cl)ccc(S(=O)(=O)N4CCC[C@H]4C(=O)N(C)CCN(C)CCCO)c3Cl)c2n1 [Example 101, methanesulphonate] 3.98 nM

###

Entries and their Kb
- experimental system: bradykinin B2 receptor (Homo sapiens)
- Construct: from tissue; host or cells: isolated human umbilical vein
- method summary: inhibition of the contraction of the isolated human umbilical vein in the presence of bradykinin
- Type: cell-based
Counter-ions that a name gives are not always drawn.
Report the figure along with its unit, number first.

Check out these entries, answers already filled in.
| compound | result |
| --- | --- |
| Cc1cc(-n2ccnc2)c2cccc(OCc3c(Cl)ccc(S(=O)(=O)N4CCC[C@H]4C(=O)NCCN4CCCC4)c3Cl)c2n1 [Example 75, tartrate] | 5.01 nM |
| Cc1cc(-n2ccnc2)c2cccc(OCc3c(Cl)ccc(S(=O)(=O)N4CCC[C@H]4C(=O)NCC4CCN(CCCO)CC4)c3Cl)c2n1 [Example 23, tartrate] | 0.794 nM |
| Cc1cc(-n2cncn2)c2cccc(OCc3c(Cl)ccc(S(=O)(=O)N4CCC[C@H]4C(=O)NCC4CCN(CCCO)CC4)c3Cl)c2n1 [Example 30, tartrate] | 2 nM |

Consider the additional compound presented here.
# Kb lookup, item Cc1cc(-n2ccnc2)c2cccc(OCc3c(Cl)ccc(S(=O)(=O)N4CCC[C@H]4C(=O)NCC4CCN(CCOCCO)CC4)c3Cl)c2n1 [Example 12, tartrate] 2 nM

###

- experimental system: human B2 receptor (Homo sapiens, UniProt P30411)
Where a name gives a salt, the structure may show the parent alone.
Field 'label' (enum: met / not met). Set to met when Ki is strictly under 8 nM; else not met.

Ki under 8 nM? Item: Cc1cc(-n2cncn2)c2cccc(OCc3c(Cl)ccc(S(=O)(=O)N4CCC[C@H]4C(=O)NCCN(C)C)c3Cl)c2n1 [Example 83, tartrate] not met

Ki under 8 nM? Item: Cc1cc(-n2ccnc2)c2cccc(OCc3c(Cl)ccc(S(=O)(=O)N4CCC[C@H]4C(=O)N(C)CCN(C)C)c3Cl)c2n1 [Example 73, tartrate] not met

###

- experimental system: bradykinin B2 receptor (Homo sapiens, UniProt P30411)
- Construct: from tissue; host or cells: isolated human umbilical vein
- Sequence (P30411 1-391): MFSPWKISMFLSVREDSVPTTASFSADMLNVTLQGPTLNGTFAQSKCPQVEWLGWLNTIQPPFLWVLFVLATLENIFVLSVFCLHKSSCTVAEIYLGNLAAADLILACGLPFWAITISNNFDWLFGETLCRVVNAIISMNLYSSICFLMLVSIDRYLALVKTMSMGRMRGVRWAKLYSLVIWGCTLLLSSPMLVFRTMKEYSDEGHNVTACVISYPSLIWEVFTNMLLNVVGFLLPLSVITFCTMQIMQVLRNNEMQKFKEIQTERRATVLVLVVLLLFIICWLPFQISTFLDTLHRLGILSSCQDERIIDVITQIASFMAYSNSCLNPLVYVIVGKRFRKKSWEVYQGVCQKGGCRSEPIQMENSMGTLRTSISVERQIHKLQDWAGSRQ
- method summary: inhibition of the contraction of the isolated human umbilical vein in the presence of bradykinin
- Type: cell-based
Counter-ions that a name gives are not always drawn.
Entries and their Kb
Just the number in nM, nothing appended.

Check out these entries, answers already filled in.
| molecule | Kb, nM |
| --- | --- |
| CNCCCNC(=O)[C@@H]1CCCN1S(=O)(=O)c1ccc(Cl)c(COc2cccc3c(-n4ccnc4)cc(C)nc23)c1Cl [Example 123, trifluoroacetate] | 3.98 |
| Cc1cc(-n2ccnc2)c2cccc(OCc3c(Cl)ccc(S(=O)(=O)N4CCC[C@H]4C(=O)NCCCN4CCCC4)c3Cl)c2n1 [Example 77, tartrate] | 2.51 |
| Cc1cc(-n2cncn2)c2cccc(OCc3c(Cl)ccc(S(=O)(=O)N4CCC[C@H]4C(=O)NCCN(C)C)c3Cl)c2n1 [Example 83, tartrate] | 12.6 |

bradykinin B2 receptor (Homo sapiens, UniProt P30411) / Kb / Cc1cc(-n2ccnc2)c2cccc(OCc3c(Cl)ccc(S(=O)(=O)N4CCC[C@H]4C(=O)NCC4CCN(CCC(=O)O)CC4)c3Cl)c2n1 [Example 115, tartrate] : value? 3.16

bradykinin B2 receptor (Homo sapiens, UniProt P30411) / Kb / Cc1cc(-n2ccnc2)c2cccc(OCc3c(Cl)ccc(S(=O)(=O)N4CCC[C@H]4C(=O)NCC4CCN(CCCCO)CC4)c3Cl)c2n1 [Example 32, tartrate] : value? 0.794

bradykinin B2 receptor (Homo sapiens, UniProt P30411) / Kb / Cc1cc(-n2ccnc2)c2cccc(OCc3c(Cl)ccc(S(=O)(=O)N4CCC[C@H]4C(=O)NCC4CCNCC4)c3Cl)c2n1 [Example 10, ditartrate] : value? 3.16

bradykinin B2 receptor (Homo sapiens, UniProt P30411) / Kb / Cc1cc(-n2ccnc2)c2cccc(OCc3c(Cl)ccc(S(=O)(=O)N4CC[C@@H](O)C4)c3Cl)c2n1 [Example 170, tartrate] : value? 10

bradykinin B2 receptor (Homo sapiens, UniProt P30411) / Kb / Cc1cc(-n2ccnc2)c2cccc(OCc3c(Cl)ccc(S(=O)(=O)N4CCC[C@H]4C(=O)N(C)CCN(C)C)c3Cl)c2n1 [Example 73, tartrate] : value? 3.98
